- assay_target: T1, cyno PRLR ECD-his6 protein (cyno)
- T1 chain: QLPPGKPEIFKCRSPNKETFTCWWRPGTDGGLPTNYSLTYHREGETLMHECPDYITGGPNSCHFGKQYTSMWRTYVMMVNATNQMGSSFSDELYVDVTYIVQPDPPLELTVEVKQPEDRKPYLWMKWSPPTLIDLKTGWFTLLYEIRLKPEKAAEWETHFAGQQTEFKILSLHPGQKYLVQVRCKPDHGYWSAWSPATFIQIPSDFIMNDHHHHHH
- run_description: ELISA on ECD
readout: EC50 (nM)
// units = nM; emit number, no label

binder	EC50 / nM
Ab45 (antibody, human IgG1, kappa, V domains shown, humanized from Ab8; G1; also called Ab3 HC.1 and Ab3 LC.1a) VH: EVQLVQSGAEVKKPGASVKVSCKASGYTFTDYNIHWVRQAPGQGLEWMGYIYPNNDGTGYNQKFKSRVTMTTDTSTSTAYMELRSLRSDDTAVYYCARGDGNYVGDMDYWGQGTTVTVSS VL: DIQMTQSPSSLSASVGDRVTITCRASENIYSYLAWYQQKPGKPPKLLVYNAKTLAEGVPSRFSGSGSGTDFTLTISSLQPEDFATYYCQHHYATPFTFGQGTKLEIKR	0.201
Ab48 (antibody, human IgG1, kappa, V domains shown, humanized from Ab8; G1; also called Ab3 HC.1a and Ab3 LC.1a) VH: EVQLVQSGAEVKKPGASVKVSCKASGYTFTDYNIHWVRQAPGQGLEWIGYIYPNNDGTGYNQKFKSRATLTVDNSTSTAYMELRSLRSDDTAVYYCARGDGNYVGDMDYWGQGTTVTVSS VL: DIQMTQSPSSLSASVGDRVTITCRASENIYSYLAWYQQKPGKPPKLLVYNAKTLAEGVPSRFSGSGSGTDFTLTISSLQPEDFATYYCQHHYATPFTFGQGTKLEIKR	0.236
Ab14 (antibody, human IgG1, kappa, V domains shown, humanized from Ab6; G1; also called Ab1 HC.1 & Ab1 LC.1) VH: EVQLVQSGAEVKKPGSSVKVSCKASGYTFTTYWMHWVRQAPGQGLEWMGEIDPSDSYSNYNQKFKDRVTITADKSTSTAYMELSSLRSEDTAVYYCARNGGLGPAWFSYWGQGTLVTVSS VL: DIQMTQSPSSVSASVGDRVTITCKASQYVGTAVAWYQQKPGKAPKLLIYSASNRYTGVPSRFSGSGSGTDFTLTISSLQPEDFATYYCQQYSSYPWTFGGGTKVEIKR	0.031

Noted for Ab27 (antibody, human IgG1, kappa, V domains shown, humanized from Ab5; G1; also called Ab2 HC.1 and Ab2 LC.1a) VH: EVQLVQSGAEVKKPGSSVKVSCKASGYTFTSFWMHWVRQAPGQGLEWMGVIDPSDTYTNYNQKFKGRVTITADESTSTAYMELSSLRSEDTAVYYCARGDYSNWFTYWGQGTLVTVSS VL: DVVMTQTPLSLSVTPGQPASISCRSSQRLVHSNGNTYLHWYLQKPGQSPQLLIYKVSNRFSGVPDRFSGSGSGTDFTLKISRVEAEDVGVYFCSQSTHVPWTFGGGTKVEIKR : its EC50 reads 0.102

Noted for chAb6 (antibody, human IgG1, kappa, V domains shown, chimeric, murine variable and human G1/kappa constant regions) VH: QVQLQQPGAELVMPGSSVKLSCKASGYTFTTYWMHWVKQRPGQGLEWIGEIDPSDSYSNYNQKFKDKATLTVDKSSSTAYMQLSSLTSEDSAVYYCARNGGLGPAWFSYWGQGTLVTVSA VL: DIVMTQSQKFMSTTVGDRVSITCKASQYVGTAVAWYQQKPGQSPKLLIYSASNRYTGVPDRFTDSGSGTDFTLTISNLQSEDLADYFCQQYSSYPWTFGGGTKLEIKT : its EC50 reads 0.072
